Data provenance: patent US20230083012A1

test system: HBV; assay: Anti-HBV activity in HepG2.2.15 cells (HBV DNA in culture medium by qPCR); format: cell-based; details: Hepatitis B virus, HepG2.2.15, 144 h, HepG2.2.15 cells, 6 days treatment, HBV DNA in culture medium quantified by real-time PCR; read-out: EC50
measured.attribute: EC50 (nM)
Give the value, in units of nM, as a plain number.

Some entries whose results are on file:
Specify measured EC50 for COC(=O)C1=C(CN2CC(F)(F)[C@H]3[C@@H]2CCN3CCC(C)(C)C(=O)O)NC(c2nccs2)=N[C@H]1c1cccc(F)c1C (single isomer, unassigned) .
2.1

Look up and state reported EC50 for CCOC(=O)C1=C(CN2CC(F)(F)C3[C@@H]2CCN3[C@H]2C[C@@](C)(C(=O)O)C2)NC(c2nccs2)=N[C@H]1c1cccc(F)c1C (single isomer, unassigned) [Compound 112B]
4.7

Look up and report measured EC50 for this entry: CCOC(=O)C1=C(CN2CC(F)(F)[C@H]3[C@@H]2CCN3CCC(C)(C)C(=O)O)NC(c2nc(C)cs2)=N[C@H]1c1cccc(F)c1C (single isomer, unassigned)
5.4

// below: EC50 requested for another compound
Consider the compound CCOC(=O)C1=C(CN2CCC3C(=O)N(CC(C)(C)C(=O)O)CC32)NC(c2nccs2)=N[C@H]1c1cccc(F)c1C (some centres unmarked) . State its measured EC50.
95.2
